biological target: Metabotropic glutamate receptor 1 (Rattus norvegicus); assay: Inhibition of rat mGluR1; conditions: read-out: IC50
pIC50: −log10 of the molar value.
measured.property: pIC50

>>> df
                                   compound  endpoint_result
0  CCc1ccc(-n2cnc3c(sc4nccc(NC)c43)c2=O)cc1             7.01
1  CC1CCCCC1n1cnc2c(sc3nccc(N(C)C)c32)c1=O (stereo not drawn)             6.89
2  CCc1ccc(-n2cnc3c(sc4nccc(N(C)CCOC)c43)c2=O)cc1             7.15

###

target: Metabotropic glutamate receptor 1 (Rattus norvegicus, UniProt P23385); assay: Inhibition of rat mGluR1; conditions: read-out: IC50
Sequence (P23385 whole entry): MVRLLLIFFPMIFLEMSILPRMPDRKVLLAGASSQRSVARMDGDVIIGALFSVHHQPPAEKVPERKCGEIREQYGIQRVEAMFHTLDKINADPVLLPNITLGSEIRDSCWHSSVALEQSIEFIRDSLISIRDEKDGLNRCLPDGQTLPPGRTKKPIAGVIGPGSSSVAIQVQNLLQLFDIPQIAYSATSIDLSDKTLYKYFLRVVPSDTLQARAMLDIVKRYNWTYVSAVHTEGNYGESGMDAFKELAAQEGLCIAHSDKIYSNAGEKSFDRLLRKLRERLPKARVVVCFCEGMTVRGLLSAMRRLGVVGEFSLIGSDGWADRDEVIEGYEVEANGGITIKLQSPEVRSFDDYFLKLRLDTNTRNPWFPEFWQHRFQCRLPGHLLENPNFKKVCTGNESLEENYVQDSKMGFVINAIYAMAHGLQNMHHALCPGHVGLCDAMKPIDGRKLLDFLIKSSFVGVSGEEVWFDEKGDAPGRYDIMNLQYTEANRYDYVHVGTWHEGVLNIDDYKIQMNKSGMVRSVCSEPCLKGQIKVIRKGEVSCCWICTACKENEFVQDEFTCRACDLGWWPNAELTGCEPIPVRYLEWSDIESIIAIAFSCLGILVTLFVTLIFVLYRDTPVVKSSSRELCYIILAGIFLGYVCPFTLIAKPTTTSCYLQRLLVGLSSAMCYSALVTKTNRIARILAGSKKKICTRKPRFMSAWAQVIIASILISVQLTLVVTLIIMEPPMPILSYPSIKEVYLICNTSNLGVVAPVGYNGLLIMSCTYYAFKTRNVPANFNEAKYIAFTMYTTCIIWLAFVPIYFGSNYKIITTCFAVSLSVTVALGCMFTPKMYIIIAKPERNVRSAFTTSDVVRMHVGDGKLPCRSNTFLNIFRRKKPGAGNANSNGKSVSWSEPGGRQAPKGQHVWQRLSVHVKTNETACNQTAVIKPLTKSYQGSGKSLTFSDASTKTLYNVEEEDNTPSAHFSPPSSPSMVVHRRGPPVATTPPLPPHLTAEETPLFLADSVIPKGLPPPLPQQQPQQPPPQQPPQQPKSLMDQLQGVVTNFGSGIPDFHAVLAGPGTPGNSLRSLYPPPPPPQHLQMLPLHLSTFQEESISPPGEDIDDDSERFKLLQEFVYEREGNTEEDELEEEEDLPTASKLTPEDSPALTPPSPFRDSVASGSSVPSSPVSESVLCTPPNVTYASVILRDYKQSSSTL
measured.property: log10 IC50 (log10 of the value in nM)

>>> print(df.to_string())
                                    molecule  endpoint_result
 0  CN(C)c1ccnc2sc3c(=O)n(C4CCCCCCC4)cnc3c12             1.11
 1  CC1CCCC(n2cnc3c(sc4nccc(N(C)C)c43)c2=O)C1 (configuration not stated)             2.68
 2  CCc1ccc(-n2cnc3c(sc4nccc(NCC#N)c43)c2=O)cc1             1.69
 3  CN(C)c1ccnc2sc3c(=O)n(C45CC6CC(CC(C6)C4)C5)cnc3c12             1.88
 4  CC1CCC(n2cnc3c(sc4nccc(N(C)C)c43)c2=O)CC1 (configuration not stated)             2.15
 5  CCc1ccccc1-n1cnc2c(sc3nccc(N(C)C)c32)c1=O             2.40
 6  CCc1ccc(-n2c(CC)nc3c(sc4nccc(N(C)C)c43)c2=O)cc1             1.92
 7  CCc1ccc(-n2cnc3c(sc4nccc([N+](C)(C)[O-])c43)c2=O)cc1             2.49
 8  CCc1ccc(-n2cnc3c(sc4nccc(N(C)C)c43)c2=O)cc1             0.48
 9  CCc1ccc(-n2cnc3c(sc4nccc(N(C)CC)c43)c2=O)cc1             1.57
10  CN(C)c1ccnc2sc3c(=O)n(-c4ccc(Br)cc4)cnc3c12             0.60
11     CCC(CC)n1cnc2c(sc3nccc(N(C)C)c32)c1=O             2.53
12  CN(C)c1ccnc2sc3c(=O)n(-c4ccc(F)cc4)cnc3c12             1.36
13  CCc1ccc(-n2cnc3c(sc4nccc(N5CCC5)c43)c2=O)cc1             2.05
14  CCc1ccc(-n2cnc3c(sc4nccc(NC5CC5)c43)c2=O)cc1             1.61
15  CCCCc1nc2c(sc3nccc(N(C)C)c32)c(=O)n1-c1ccc(CC)cc1             2.00
16  CN(C)c1ccnc2sc3c(=O)n(-c4ccc(C5CC5)cc4)cnc3c12             1.94

Source of measurements: ChEMBL document CHEMBL1156680
